test: in vitro; conditions: human, hepatocytes
valueType: remaining at 0.5 h

[Q] Report remaining at 0.5 h for COc1ccc(C(N)=O)cn1 [JBSNF-000088, 6-methoxynicotinamide] please.
[A] > 70%

* * *

Molecular target: monkey NNMT (mkNNMT) (Macaca mulatta, UniProt F7ERX8)
Sequence (F7ERX8 1-264): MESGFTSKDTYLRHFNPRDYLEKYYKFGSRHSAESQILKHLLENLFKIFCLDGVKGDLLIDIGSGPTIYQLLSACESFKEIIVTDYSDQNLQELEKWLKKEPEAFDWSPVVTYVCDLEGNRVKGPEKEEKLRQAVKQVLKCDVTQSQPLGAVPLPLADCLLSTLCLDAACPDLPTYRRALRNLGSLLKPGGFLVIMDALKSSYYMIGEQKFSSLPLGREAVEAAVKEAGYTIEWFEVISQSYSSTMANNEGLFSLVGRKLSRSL
valueType: pIC50
pIC50 is a log-scale quantity: -log10 of the concentration expressed in molar.

[Q] Report pIC50 for COc1ccc(C(N)=O)cn1 [JBSNF-000088, 6-methoxynicotinamide] please.
[A] 5.55

* * *

Test: in vivo
Settings: male, db/db (BKS.Cg- + Leprdb/ + Leprdb/OlaHsd), mouse, in vivo, JBSNF-000088 (μM), visceral fat
Experimental: Samples for MNA were analyzed employing a fit-for-purpose LC-MS/MS method. PE-Sciex API-4000 triple quadrupole (PerkinElmerSciex Instruments, Boston, MA) mass spectrometer was employed for this analysis. […] Quantitation was achieved by MS/MS detection in positive ion mode for MNA and internal standard (d4–MNA). […] Samples for methylated JBSNF-000088 were analyzed employing a fit-for-purpose LC-MS/MS method. […]
valueType: concentration at 1 h (µM)
I only need the number, in µM, no unit after it.

[Q] Report concentration at 1 h for COc1ccc(C(N)=O)cn1 [JBSNF-000088, 6-methoxynicotinamide] please.
[A] 7.14

* * *

assay: in vivo; settings: C57BL/6, mouse
valueType: clearance (mL/min/kg)
I only need the number, in mL/min/kg, no unit after it.

[Q] Report clearance for COc1ccc(C(N)=O)cn1 [JBSNF-000088, 6-methoxynicotinamide] please.
[A] 20.5

* * *

assay: in vivo; conditions: C57BL/6, mouse, po, 10 mg/kg
valueType: Cmax (ng/mL)
I only need the number, in ng/mL, no unit after it.

[Q] Report Cmax for COc1ccc(C(N)=O)cn1 [JBSNF-000088, 6-methoxynicotinamide] please.
[A] 3570

* * *

experiment: in vivo; settings: C57BL/6, mouse, iv
valueType: half-life (min)
I only need the number, in min, no unit after it.

[Q] Report half-life for COc1ccc(C(N)=O)cn1 [JBSNF-000088, 6-methoxynicotinamide] please.
[A] 30

* * *

assay: in vitro; settings: human, Caco-2
valueType: Papp (×10⁻⁶ cm/s)
I only need the number, in ×10⁻⁶ cm/s, no unit after it.

[Q] Report Papp for COc1ccc(C(N)=O)cn1 [JBSNF-000088, 6-methoxynicotinamide] please.
[A] 25.2

* * *

assay: in vivo; settings: C57BL/6, mouse, iv
valueType: clearance (mL/min/kg)
I only need the number, in mL/min/kg, no unit after it.

[Q] Report clearance for COc1ccc(C(N)=O)cn1 [JBSNF-000088, 6-methoxynicotinamide] please.
[A] 21
